test system: cysteine peptide Ac-RFAACAA-COOH; test: efficacy of cysteine peptide change (negative = depletion) (% activity); higher = less depletion; details: incubation time: 24 h
Where a name gives a salt, the structure may show the parent alone.
measurementName: efficacy of cysteine peptide change
Write no unit; give the number alone.

CN(C)S(=O)(=O)N(SC(F)(Cl)Cl)c1ccccc1 | -92.1
O=C(CS)Nc1ccccc1 [Thioglycolic acid anilide] | -109
C[n+]1cc2c3c(ccc2c2ccc4cc5c(cc4c21)OCO5)OCO3 | 58.9
c1ccc(Nc2ccc(Nc3ccccc3)cc2)cc1 | -119

Query: efficacy of cysteine peptide change lookup needed for CN(C)c1ccc(C(=C2C=CC(=[N+](C)C)C=C2)c2ccccc2)cc1 [Malachite green oxalate*] , thanks.
Response: -94.9

Query: What do you have for Cn1sccc1=O [2-Methyl-4-isothiazolin-3-one hydrochloride] ?
Response: -98.5

Query: What do you have for CC(C)=CCOc1ccc(/C=C/C(=O)c2ccc(OCC=C(C)C)cc2OCC(=O)O)cc1 ?
Response: 54.9

Query: What do you have for NNC(N)=S [Thiosemicarbazide] ?
Response: -40.9

Query: What do you have for O=c1cc(-c2ccccc2)oc2cc(O)cc(O)c12 ?
Response: -10.9

----------
test system: cysteine peptide Ac-RFAACAA-COOH; experiment: efficacy of cysteine peptide change (negative = depletion) (% activity); higher = less depletion; conditions: incubation time: 24 h
Reported efficacy of cysteine peptide change values for a set of molecules
Write no unit; give the number alone.

Use the examples below as a reference point.
CCCCCCCCCCCCN(CCO)CCO | -45.7
Cc1c2ccccc2c(C)c2c1ccc1ccccc12 | -86.2
Cc1ccc(O)c(-n2nc3ccccc3n2)c1 | 3.66

Consider now this further molecule.
Query: efficacy of cysteine peptide change lookup needed for CN1C[C@H](C(=O)N[C@]2(C)O[C@@]3(O)[C@@H]4CCCN4C(=O)[C@H](Cc4ccccc4)N3C2=O)C=C2c3cccc4[nH]cc(c34)C[C@H]21 [Ergotamine D-tartrate*] , thanks.
Response: -98.5

----------
Reported efficacy of cysteine peptide change values for a set of compounds
tested on: cysteine peptide Ac-RFAACAA-COOH; assay: efficacy of cysteine peptide change (negative = depletion) (% activity); higher = less depletion; details: incubation time: 24 h
Structures can show the parent of a compound that is named as a salt.
Write no unit; give the number alone.

Use the examples below as a reference point.
COc1ccccc1N [2-Methoxyaniline hydrochloride] | -74
Nc1ccc(N)cc1 | -107
CCCCOCN(C(=O)CCl)c1c(CC)cccc1CC | -24.1

Query: efficacy of cysteine peptide change lookup needed for S=C=NCc1ccccc1 [BENZYL ISOTHIOCYANATE] , thanks.
Response: -57.9

Query: What do you have for O=C(O)c1ccc(=O)[nH]c1 [6-Hydroxynicotinic acid] ?
Response: 12.2

Query: What do you have for C=CC(=O)OCCn1c(=O)n(CCOC(=O)C=C)c(=O)n(CCOC(=O)C=C)c1=O ?
Response: -99.7

----------
test system: lysine peptide Ac-RFAAKAA-COOH; experiment: efficacy of lysine peptide change (negative = depletion) (% activity); higher = less depletion; conditions: incubation time: 24 h
measurementName: efficacy of lysine peptide change
Write no unit; give the number alone.

Use the examples below as a reference point.
Nc1nnc(-c2ccc([N+](=O)[O-])o2)o1 | -11.9
O=C1c2cccc(O)c2C(=O)c2c(O)cccc21 | -14.7
Cc1ccc2c(c1N)C(=O)c1ccccc1C2=O | -8.55
O=c1cc(-c2ccccc2)oc2ccccc12 | 50.2
COc1ccc2cc(CCC(C)=O)ccc2c1 | -2.87

Query: efficacy of lysine peptide change lookup needed for O=C(CCCCCCC(=O)Nc1ccccc1)NO [Vorinostat (SAHA)] , thanks.
Response: 11.4

Query: What do you have for CC(C)=CCOc1ccc(/C=C/C(=O)c2ccc(OCC=C(C)C)cc2OCC(=O)O)cc1 ?
Response: -12.4

Query: What do you have for O=C(O)CCCCCCCCC(=O)O ?
Response: 3.76

Query: What do you have for CCCCCCCCCCCCCCCC[N+](C)(C)Cc1ccccc1 [Benzylhexadecyldimethylammonium chloride] ?
Response: 66

Query: What do you have for CCN(CC)c1ccc(C(=O)c2ccccc2C(=O)O)c(O)c1 [2-[4-(Diethylamino)-2-hydroxybenzoyl]benzoic acid] ?
Response: -5.24

----------
Reported efficacy of lysine peptide change values for a set of compounds
tested on: lysine peptide Ac-RFAAKAA-COOH; test: efficacy of lysine peptide change (negative = depletion) (% activity); higher = less depletion; conditions: incubation time: 24 h
Write no unit; give the number alone.

Use the examples below as a reference point.
O=[N+]([O-])c1cc([N+](=O)[O-])c2ccccc2c1 [1,3-Dinitronaphthalene] | -15.1
S=C=NCc1ccccc1 [BENZYL ISOTHIOCYANATE] | 19.8
O=C(O)c1cn(C2CC2)c2cc(N3CCNCC3)c(F)cc2c1=O [Ciprofloxacin] | -2.18
CCCCC/C=C\C=C\C(=O)OCC [Ethyl (2E,4Z)-deca-2,4-dienoate] | -21.2

Consider now this further compound.
Query: efficacy of lysine peptide change lookup needed for OCc1ccco1 [Furfuryl alcohol] , thanks.
Response: -37.2

----------
Reported efficacy of cysteine peptide change values for a set of molecules
system: cysteine peptide Ac-RFAACAA-COOH; assay: efficacy of cysteine peptide change (negative = depletion) (% activity); higher = less depletion; details: incubation time: 24 h
Write no unit; give the number alone.

c1cc(OCC2CO2)cc(OCC2CO2)c1 (centres undefined) | -8.5
CCCCCCCCCCCC(=O)NCCCN(C)C [N-[3-(Dimethylamino)propyl]dodecanamide] | 18
c1ccc(-c2ccccn2)nc1 | -15.1

Query: efficacy of cysteine peptide change lookup needed for O=C1Nc2ccccc2C1(c1ccc(O)cc1)c1ccc(O)cc1 , thanks.
Response: -16.7

Query: What do you have for COc1cc(/C=C2\CCC/C(=C\c3ccc(O)c(OC)c3)C2=O)ccc1O ?
Response: -50.1

Query: What do you have for CN(C)c1ccc(SC#N)cc1 [4-(Dimethylamino)phenylthiocyanate] ?
Response: -101

Query: What do you have for c1ccc2cc3c(ccc4ccccc43)cc2c1 ?
Response: -97.8

Query: What do you have for ClC1=C(Cl)C2(Cl)C3C(Cl)C(Cl)CC3C1(Cl)C2(Cl)Cl (centres undefined) ?
Response: -56.1

Query: What do you have for CCOc1ccc2nc(S(N)(=O)=O)sc2c1 [Ethoxzolamide] ?
Response: 2.67

----------
test system: cysteine peptide Ac-RFAACAA-COOH; assay: efficacy of cysteine peptide change (negative = depletion) (% activity); higher = less depletion; conditions: incubation time: 24 h
measurementName: efficacy of cysteine peptide change
Write no unit; give the number alone.

Query: efficacy of cysteine peptide change lookup needed for Cc1cc(C2CC2)nc(Nc2ccccc2)n1 , thanks.
Response: 6

Query: What do you have for CC(C)=CCC1C(=O)N(c2ccccc2)N(c2ccccc2)C1=O ?
Response: -88.7

Query: What do you have for CCC(C)(CC)c1cc(NC(=O)c2c(OC)cccc2OC)on1 ?
Response: 21.1

----------
Reported AC50 of Nrf2/ARE luciferase induction values for a set of molecules
system: KeratinoSens (HaCaT ARE-luciferase) cells; assay: AC50 of Nrf2/ARE luciferase induction; higher = less potent; settings: exposure time: 24 h
# number only, unit µM dropped from output

Use the examples below as a reference point.
C[C@@H]1O[C@@H](O[C@H]2C[C@@H](O)[C@]3(CO)[C@H]4[C@H](O)C[C@]5(C)[C@@H](C6=CC(=O)OC6)CC[C@]5(O)[C@@H]4CC[C@]3(O)C2)[C@H](O)[C@H](O)[C@H]1O [Ouabain] | 0.96
Cl/C=C\C[N+]12CN3CN(CN(C3)C1)C2 [Chloroallyl methenamine chloride] | 73.7
COc1ccc(C(=O)/C(Br)=C\C(=O)O)cc1 [Cytembena] | 37.1
O=C1c2ccccc2C(=O)C1c1ccc2ccccc2n1 [D & C Yellow II] | 11.6
CC/C=C\C/C=C\C/C=C\CCCCCCCC(=O)OCC [Ethyl linolenate] | 18.4
[Cl][Bi]([Cl])([c]1ccccc1)([c]1ccccc1)[c]1ccccc1 [Triphenylbismuthine dichloride] | 14.2
Cc1ccc2c(c1N)C(=O)c1ccccc1C2=O [1-Amino-2-methylanthraquinone] | 37.8
CCC1OCC(COc2ccc(Oc3ccccc3)cc2)O1 (configuration not stated) [Diofenolan] | 13.7
CC(C)CCCCCCCOC(=O)c1ccc(C(=O)OCCCCCCCC(C)C)c(C(=O)OCCCCCCCC(C)C)c1 [Triisodecyl trimellitate] | 42.2
CCOc1ccc2nc3cc(N)ccc3c(N)c2c1 [Ethacridine lactate monohydrate] | 29.4

Query: AC50 of Nrf2/ARE luciferase induction lookup needed for O=C1OC(OC(=O)c2cccnc2Nc2cccc(C(F)(F)F)c2)c2ccccc21 (configuration not stated) [Talniflumate] , thanks.
Response: 35.5

Query: What do you have for COc1cccc2c1C(=O)c1c(O)c3c(c(O)c1C2=O)C[C@@](O)(C(=O)CO)C[C@@H]3O[C@H]1C[C@H](N)[C@H](O)[C@H](C)O1 [Doxorubicin*] ?
Response: 7.94
